# Test system: HCV replicon I389luc-ubi-neo/NS3-3′/ET in ET (Huh-lucubineo-ET) cells
# assay overview: Replicon assay (Biological Example 2), luciferase readout
# Type: cell-based
# condition summary: Hepatitis C virus; ET cells, luciferase activity 48 hours after compound
pIC50: −log10 of the molar value.
Provide the reported pIC50 of each item.

Considering O=C(O)c1sc(-c2ccccc2)cc1N1C(=O)CNC[C@H]1C1CCCCC1 , its pIC50 with HCV replicon I389luc-ubi-neo/NS3-3′/ET in ET (Huh-lucubineo-ET) cells was recorded as ≤ 5.30

Considering O=C(O)c1sc(-c2ccccc2)cc1N1C(=O)CN(S(=O)(=O)c2ccc(N3CCCC3)nc2)C[C@H]1C1CCCCC1 , its pIC50 with HCV replicon I389luc-ubi-neo/NS3-3′/ET in ET (Huh-lucubineo-ET) cells was recorded as ≥ 7.00

Considering CC(C)(C)C#Cc1cc(N2C(=O)[C@](C)(CCC(C)(C)O)OC[C@H]2C2CCCCC2)c(C(=O)O)s1 , its pIC50 with HCV replicon I389luc-ubi-neo/NS3-3′/ET in ET (Huh-lucubineo-ET) cells was recorded as ≥ 7.00

Considering CC(C)(C)C#Cc1cc(N2C(=O)CN(S(=O)(=O)c3cccnc3)C[C@H]2C2CCCCC2)c(C(=O)O)s1 , its pIC50 with HCV replicon I389luc-ubi-neo/NS3-3′/ET in ET (Huh-lucubineo-ET) cells was recorded as ≥ 7.00
